Molecular target: human CD33 K313A (human, UniProt P20138 18-364)
Sequence (P20138 18-364 K313A limits assumed): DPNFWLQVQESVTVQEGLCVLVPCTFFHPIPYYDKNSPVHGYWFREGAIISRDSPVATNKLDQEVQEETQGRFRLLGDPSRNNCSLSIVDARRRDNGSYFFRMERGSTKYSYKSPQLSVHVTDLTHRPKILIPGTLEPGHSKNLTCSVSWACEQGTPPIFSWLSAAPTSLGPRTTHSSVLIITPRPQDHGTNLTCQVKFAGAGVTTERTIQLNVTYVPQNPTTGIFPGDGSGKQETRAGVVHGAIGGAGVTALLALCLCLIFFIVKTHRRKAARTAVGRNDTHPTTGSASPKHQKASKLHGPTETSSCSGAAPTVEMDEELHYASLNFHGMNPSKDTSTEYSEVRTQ
Assay: alanine scan, flow cytometry, HEK293-T;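 also: antibody binding to each alanine-substituted CD33 mutant expressed transiently in HEK293-T, read as fluorescence minus background, mean of duplicates, relative to wild-type CD33 set as 100%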
For each entry below, report its Mean % WT Binding value.
Dear colleague, please return just the value in % WT binding, with no unit written.

Mean % WT Binding for Refmab #3 (antibody, V domains shown, The alanine scan used IgG or Fab) VH: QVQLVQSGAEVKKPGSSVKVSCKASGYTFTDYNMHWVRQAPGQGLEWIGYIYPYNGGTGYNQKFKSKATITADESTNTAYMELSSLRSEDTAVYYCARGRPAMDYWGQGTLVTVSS VL: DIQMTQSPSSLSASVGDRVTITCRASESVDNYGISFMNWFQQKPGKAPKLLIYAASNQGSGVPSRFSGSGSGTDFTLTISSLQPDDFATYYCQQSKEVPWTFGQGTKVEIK ?
137

Bench note: what Mean % WT Binding did Refmab #1 (antibody, V domains shown, The alanine scan used IgG or Fab; also called hP67.6) VH: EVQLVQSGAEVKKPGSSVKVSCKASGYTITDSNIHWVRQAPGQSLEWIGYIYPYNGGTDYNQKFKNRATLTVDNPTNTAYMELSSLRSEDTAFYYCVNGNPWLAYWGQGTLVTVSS VL: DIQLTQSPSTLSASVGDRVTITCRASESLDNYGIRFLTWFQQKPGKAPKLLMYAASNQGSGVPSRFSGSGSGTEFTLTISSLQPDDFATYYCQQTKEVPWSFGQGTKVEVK show?
84.1

Could you tell me which Mean % WT Binding is on file for Refmab #4 (antibody, V domains shown, The alanine scan used IgG or Fab) VH: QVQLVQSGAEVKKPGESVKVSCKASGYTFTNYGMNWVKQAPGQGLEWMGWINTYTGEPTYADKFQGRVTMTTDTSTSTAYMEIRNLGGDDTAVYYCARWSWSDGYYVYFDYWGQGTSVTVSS VL: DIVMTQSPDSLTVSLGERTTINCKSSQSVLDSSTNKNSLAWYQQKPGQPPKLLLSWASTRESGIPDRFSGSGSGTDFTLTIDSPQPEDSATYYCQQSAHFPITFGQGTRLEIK ?
87.7

Given the binder Refmab #2 (antibody, V domains shown, The alanine scan used IgG or Fab) VH: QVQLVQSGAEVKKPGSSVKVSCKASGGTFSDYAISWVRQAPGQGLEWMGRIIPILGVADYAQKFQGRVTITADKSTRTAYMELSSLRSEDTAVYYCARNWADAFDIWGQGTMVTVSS VL: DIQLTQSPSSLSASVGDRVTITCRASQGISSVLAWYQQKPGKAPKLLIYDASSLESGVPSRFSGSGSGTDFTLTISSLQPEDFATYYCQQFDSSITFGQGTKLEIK , what is its reported Mean % WT Binding?
108
